- assay_target: mGluR5 (Homo sapiens)
- assay_info: mGluR5 fold shift at a fixed compound concentration
- Type: cell-based
- condition: at 10 μM

compound | Fold shift at 10 μM
CC1CCc2cc3cc(C#Cc4ccccn4)ccc3c(=O)n2CC1 (single isomer, unassigned) [Example 3.20a] | +++ (+++>3)
COC1(C)CCc2nc3cc(C#Cc4ccccn4)ccc3c(=O)n2CC1 (single isomer, unassigned) [Example 3.4a] | +++ (+++>3)

====

Entries and their pEC50
- assay_target: mGluR5 (Homo sapiens, UniProt P41594)
- Sequence (P41594 21-1212): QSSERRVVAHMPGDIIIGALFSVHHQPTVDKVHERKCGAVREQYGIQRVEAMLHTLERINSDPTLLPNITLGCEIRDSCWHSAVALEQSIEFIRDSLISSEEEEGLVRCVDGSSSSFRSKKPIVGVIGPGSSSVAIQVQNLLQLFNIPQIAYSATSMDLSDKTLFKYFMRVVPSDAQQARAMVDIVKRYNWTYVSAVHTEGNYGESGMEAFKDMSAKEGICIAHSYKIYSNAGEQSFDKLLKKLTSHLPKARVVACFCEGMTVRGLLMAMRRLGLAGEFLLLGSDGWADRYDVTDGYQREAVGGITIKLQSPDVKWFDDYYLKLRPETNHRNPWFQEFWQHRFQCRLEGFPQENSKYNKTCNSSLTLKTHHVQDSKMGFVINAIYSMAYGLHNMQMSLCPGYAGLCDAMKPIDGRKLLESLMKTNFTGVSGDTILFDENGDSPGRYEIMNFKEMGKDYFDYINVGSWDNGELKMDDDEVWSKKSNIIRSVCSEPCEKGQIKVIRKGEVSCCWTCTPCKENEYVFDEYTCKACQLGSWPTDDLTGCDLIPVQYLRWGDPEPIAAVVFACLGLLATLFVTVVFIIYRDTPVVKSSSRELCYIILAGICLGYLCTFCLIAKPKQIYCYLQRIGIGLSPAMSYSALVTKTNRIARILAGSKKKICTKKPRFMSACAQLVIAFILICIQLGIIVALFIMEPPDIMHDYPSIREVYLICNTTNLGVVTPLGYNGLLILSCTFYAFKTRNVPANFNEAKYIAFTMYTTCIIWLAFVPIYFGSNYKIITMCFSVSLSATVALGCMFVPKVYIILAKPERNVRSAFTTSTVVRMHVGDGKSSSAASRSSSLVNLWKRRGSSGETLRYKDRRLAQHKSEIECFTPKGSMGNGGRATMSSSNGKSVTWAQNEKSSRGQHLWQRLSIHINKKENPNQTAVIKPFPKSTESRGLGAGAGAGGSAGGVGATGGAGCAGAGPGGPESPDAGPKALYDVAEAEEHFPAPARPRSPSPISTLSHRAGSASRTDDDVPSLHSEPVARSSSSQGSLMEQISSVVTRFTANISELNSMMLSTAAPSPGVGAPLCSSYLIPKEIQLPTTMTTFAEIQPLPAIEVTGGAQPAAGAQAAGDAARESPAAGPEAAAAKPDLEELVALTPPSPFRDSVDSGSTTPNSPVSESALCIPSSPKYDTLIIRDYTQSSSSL
- assay_info: mGluR5 PAM EC50 (positive allosteric modulator potency)
pEC50: −log10 of the molar value.

compound | assay_target | endpoint | result
CC1(C)Cc2nc3cc(C(=O)Nc4ccccn4)ccc3c(=O)n2C1 [Example 4.17] | mGluR5 (Homo sapiens, UniProt P41594) | pEC50 | 6.00 to 6.52
CC1(C)C=Cc2nc3cc(C#Cc4ccccn4)ccc3c(=O)n2CC1 [Example 3.42] | mGluR5 (Homo sapiens, UniProt P41594) | pEC50 | 7.00 to 7.52
O=c1c2ccc(C#Cc3ccccn3)cc2nc2n1C1CCC2C1 (single isomer, unassigned) [Example 2.9a] | mGluR5 (Homo sapiens, UniProt P41594) | pEC50 | 7.52 to 8.00

Please examine the following record next.
Return the recorded pEC50 value; entry: CC1(C)CCc2nc3c(F)c(C#Cc4ccccn4)ccc3c(=O)n2C1 [Example 2.30b] 7.52 to 8.00

====

- assay_target: mGluR5 (Homo sapiens, UniProt P41594)
- assay_info: mGluR5 PAM EC50 (positive allosteric modulator potency)
Each entry below carries its reported EC50.

Study these solved cases before continuing.
compound | endpoint | result
CC1CCc2nc3cc(C#Cc4cc(C#N)ccn4)ccc3c(=O)n2CC1 (centres unmarked) [Example 3.19] | EC50 | 30 to 100 nM
COC1CCc2nc3cc(C#Cc4ccccn4)cnc3c(=O)n2CC1 (centres unmarked) [Example 3.23] | EC50 | 100 to 300 nM

Supply EC50 value. Item: CC1Cn2c(nc3cc(C#Cc4ccccn4)cnc3c2=O)CCC1(F)F (single isomer, unassigned) [Example 3.31e] 30 to 100 nM

For the compound O=c1c2ccc(C#Cc3ccccn3)cc2nc2n1C[C@H]1CCCN1C2 [Example 2.104] , report EC50. 30 to 100 nM

Please give the documented EC50 of CC1Cc2nc3cc(C#Cc4ccccn4)cnc3c(=O)n2CCC1(F)F (single isomer, unassigned) [Example 3.31c] 30 to 100 nM

====

- assay_target: mGluR5 (Homo sapiens)
- assay_info: mGluR5 PAM EC50 (positive allosteric modulator potency)
endpoint: EC50

compound | EC50
CCC1(F)CCc2nc3cc(C#Cc4ccccn4)cnc3c(=O)n2CC1 (centres unmarked) | 30 to 100 nM
CC1(C)CC(F)c2nc3cc(C#Cc4ccccn4)ccc3c(=O)n2C1 (single isomer, unassigned) [Example 2.12a] | < 10 nM
CC1(CO)CCc2nc3cc(C#Cc4ccccn4)ccc3c(=O)n2C1 (centres unmarked) | 30 to 100 nM

Read the entry CC1(C)CCc2nc3cc(-c4nnc(-c5ccccn5)o4)ccc3c(=O)n2C1 and write its reported EC50. 100 to 300 nM

Look up and report measured EC50 for this entry: CC1(C)CCn2c(nc3cc(C#Cc4cc(C#N)ccn4)ccc3c2=O)C1 [Example 2.25a] 10 to 30 nM

Output EC50 of CC1(C)CCc2nc3cc(C#Cc4ccc(F)cn4)ccc3c(=O)n2C1 < 10 nM

Let me know recorded EC50 for O=c1c2ncc(C#Cc3ccccn3)cc2nc2n1CCC(C(F)(F)F)C2 (centres unmarked) , thanks. 30 to 100 nM

For the compound O=c1c2ccc(C#Cc3ccccn3)cc2nc2n1CC(CF)C2 (single isomer, unassigned) [Example 1.9b] , report EC50. 300 to 1000 nM
